ASSAY_METHOD_TEXT: clinical
CONDITION_DESCRIPTION: human, in vivo, 100 mg, Erlotinib Cmax
MEASURED_PROPERTY: Cmax

Please report the recorded Cmax for `C#Cc1cccc(Nc2ncnc3cc(OCCOC)c(OCCOC)cc23)c1` . 985 ng/mL

Entry source: paper PMC3033228
